Experimental System: NPY receptors in rat brain membranes
Procedure Text: Radioreceptor binding assay (3H-NPY, rat brain membranes)
Recorded Conditions: 37° C.
Non-standard residues stand in square brackets, D forms with d. Residues, ends and D or L forms follow the SMILES beside them. *: point of attachment. Desaminotyrosyl = O=C(CCc1ccc(O)cc1)*; X1 = Clc1cccc(Cl)c1C*; Aib = CC(C)(N)C(=O)O
Reported pIC50 by item:
In simple prose, pIC50 is minus the logarithm base ten of a concentration in moles per litre.

CC[C@H](C)[C@H](N)C(=O)N[C@@H](CC(N)=O)C(=O)N1CCC[C@H]1C(=O)NC(CCCC(NC(=O)[C@@H]1CCCN1C(=O)[C@H](CC(N)=O)NC(=O)[C@@H](N)[C@@H](C)CC)C(=O)N[C@@H](Cc1ccc(O)cc1)C(=O)N[C@@H](CCCNC(=N)N)C(=O)N[C@@H](CC(C)C)C(=O)N[C@@H](CCCNC(=N)N)C(=O)N[C@@H](Cc1ccc(O)cc1)C(N)=O)C(=O)N[C@@H](Cc1ccc(O)cc1)C(=O)N[C@@H](CCCNC(=N)N)C(=O)N[C@@H](CC(C)C)C(=O)N[C@@H](CCCNC(=N)N)C(=O)N[C@@H](Cc1ccc(O)cc1)C(N)=O (stereo partly shown)	8.72
CC[C@H](C)[C@H](N)C(=O)N[C@@H](CC(N)=O)C(=O)N1CCC[C@H]1C(=O)N[C@H](C(=O)N[C@@H](Cc1ccc(O)cc1)C(=O)N[C@@H](CCCNC(=N)N)C(=O)N[C@@H](CC(C)C)C(=O)N[C@@H](CCCNC(=N)N)C(=O)N[C@@H](Cc1ccc(O)cc1)C(N)=O)[C@@H](C)OC [Example 2] (H-INPT(Me)YRLRY-NH2)	6.55

Input line: pIC50 lookup needed for CC[C@H](C)[C@H](NC(=O)CCc1ccc(O)cc1)C(=O)N[C@@H](CC(N)=O)C(=O)N[C@@H](CC(C)C)C(=O)N[C@H](C(=O)N[C@@H](Cc1ccc(O)cc1)C(=O)N[C@@H](CCCNC(=N)N)C(=O)N[C@@H](CC(C)C)C(=O)N[C@@H](CCCNC(=N)N)C(=O)N[C@@H](Cc1ccc(O)cc1)C(N)=O)[C@@H](C)CC [Example 18] (Desaminotyrosyl-INLIYRLRY-NH2) , thanks.
Output line: 7.77

Input line: pIC50 lookup needed for CC[C@H](C)[C@H](N)C(=O)N[C@@H](CC(N)=O)C(=O)N1CCC[C@H]1C(=O)NC(C)(C)C(=O)N[C@@H](Cc1ccc(OCc2c(Cl)cccc2Cl)cc1)C(=O)N[C@@H](CCCNC(=N)N)C(=O)N[C@@H](CC(C)C)C(=O)N[C@@H](CCCNC(=N)N)C(=O)N[C@@H](Cc1ccc(O)cc1)C(N)=O [Example 3] (H-INP[Aib]Y(X1)RLRY-NH2; N-terminus assumed) , thanks.
Output line: 6.46

###

Reported HEL CELLS % Fluor (c) by item:
Test system: Human erythroleukemic (HEL) cells
Procedure Text: Intracellular calcium measurements in HEL cells (Fura-2)
Assay type: cell-based
Recorded Conditions: agonistic activity: fluorescence induced by 100 nM of the peptide
Non-standard residues stand in square brackets, D forms with d. Residues, ends and D or L forms follow the SMILES beside them. *: point of attachment. Desaminotyrosyl = O=C(CCc1ccc(O)cc1)*; X1 = Clc1cccc(Cl)c1C*; Aib = CC(C)(N)C(=O)O
Report the value in % with no unit label.

Example molecules with recorded HEL CELLS % Fluor (c):
CC[C@H](C)[C@H](N)C(=O)N[C@@H](CC(N)=O)C(=O)N1CCC[C@H]1C(=O)NC(C)(C)C(=O)N[C@@H](Cc1ccc(OCc2c(Cl)cccc2Cl)cc1)C(=O)N[C@@H](CCCNC(=N)N)C(=O)N[C@@H](CC(C)C)C(=O)N[C@@H](CCCNC(=N)N)C(=O)N[C@@H](Cc1ccc(O)cc1)C(N)=O [Example 3] (H-INP[Aib]Y(X1)RLRY-NH2; N-terminus assumed)	0
CC[C@H](C)[C@H](NC(=O)CCc1ccc(O)cc1)C(=O)N[C@@H](CC(N)=O)C(=O)N[C@@H](CC(C)C)C(=O)N[C@H](C(=O)N[C@@H](Cc1ccc(O)cc1)C(=O)N[C@@H](CCCNC(=N)N)C(=O)N[C@@H](CC(C)C)C(=O)N[C@@H](CCCNC(=N)N)C(=O)N[C@@H](Cc1ccc(O)cc1)C(N)=O)[C@@H](C)CC [Example 18] (Desaminotyrosyl-INLIYRLRY-NH2)	28
CC[C@H](C)[C@H](N)C(=O)N[C@@H](CC(N)=O)C(=O)N1CCC[C@H]1C(=O)N[C@H](C(=O)N[C@@H](Cc1ccc(O)cc1)C(=O)N[C@@H](CCCNC(=N)N)C(=O)N[C@@H](CC(C)C)C(=O)N[C@@H](CCCNC(=N)N)C(=O)N[C@@H](Cc1ccc(O)cc1)C(N)=O)[C@@H](C)OC [Example 2] (H-INPT(Me)YRLRY-NH2)	0

We now examine a further molecule.
Input line: HEL CELLS % Fluor (c) lookup needed for CC[C@H](C)[C@H](N)C(=O)N[C@@H](CC(N)=O)C(=O)N1CCC[C@H]1C(=O)NC(CCCC(NC(=O)[C@@H]1CCCN1C(=O)[C@H](CC(N)=O)NC(=O)[C@@H](N)[C@@H](C)CC)C(=O)N[C@@H](Cc1ccc(O)cc1)C(=O)N[C@@H](CCCNC(=N)N)C(=O)N[C@@H](CC(C)C)C(=O)N[C@@H](CCCNC(=N)N)C(=O)N[C@@H](Cc1ccc(O)cc1)C(N)=O)C(=O)N[C@@H](Cc1ccc(O)cc1)C(=O)N[C@@H](CCCNC(=N)N)C(=O)N[C@@H](CC(C)C)C(=O)N[C@@H](CCCNC(=N)N)C(=O)N[C@@H](Cc1ccc(O)cc1)C(N)=O (stereo partly shown) , thanks.
Output line: 0
